Source listed as PubChem BioAssay (NCATS).

assay: Cell Viability - LYMP2-018 (AID 985); conditions: LYMP2-018 lymphoblastoid cells, viability (qHTS); series mostly up to 92.2 µM;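 also: compound exposure lasted 24 hr at 37 °C; plate controls were DMSO only for no effect and tetraoctylammonium bromide at 92 µM for full effect; nearly all actives have a fitted effect of over 50% in size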
Results filed as inconclusive are left out. Calls of active or inactive are those of the source. Calls follow the shape of the dose curve; as a rule, active = well fitted cell-killing curve with a large enough effect; inconclusive = small, poorly fitted or top-dose-only effect; inactive = flat fitted curve, though single readings scatter.
Give your call using only these classes: Yes = active, No = inactive

Sample answers from the record:
O=C(Cl)c1ccccc1F = No
CNC(=O)O/N=C/C(C)(C)S(C)=O (stereo unspecified) = No
Nc1ccc(-c2ccccc2)cc1 = No
Nc1ncc([N+](=O)[O-])s1 = No
CN(C)N=O = No
Cc1ccc([N+](=O)[O-])cc1 = No

Name the outcome recorded for CCC[N+](=O)[O-] in the assay.
No

Let us now turn to COC(=O)c1ccccc1N
No

Let us now turn to Cc1ccc(N)cc1C
No

* * *

molecular target: Glucocorticoid receptor (Homo sapiens) (UniProt P04150); test: GR-EFC Redistribution (AID 451); conditions: CHO-K1 GR-EFC translocation, beta-gal luminescence, 2 h; also: potency is read from the fitted curve at half-maximal effect
Sequence (P04150 whole entry, looked up): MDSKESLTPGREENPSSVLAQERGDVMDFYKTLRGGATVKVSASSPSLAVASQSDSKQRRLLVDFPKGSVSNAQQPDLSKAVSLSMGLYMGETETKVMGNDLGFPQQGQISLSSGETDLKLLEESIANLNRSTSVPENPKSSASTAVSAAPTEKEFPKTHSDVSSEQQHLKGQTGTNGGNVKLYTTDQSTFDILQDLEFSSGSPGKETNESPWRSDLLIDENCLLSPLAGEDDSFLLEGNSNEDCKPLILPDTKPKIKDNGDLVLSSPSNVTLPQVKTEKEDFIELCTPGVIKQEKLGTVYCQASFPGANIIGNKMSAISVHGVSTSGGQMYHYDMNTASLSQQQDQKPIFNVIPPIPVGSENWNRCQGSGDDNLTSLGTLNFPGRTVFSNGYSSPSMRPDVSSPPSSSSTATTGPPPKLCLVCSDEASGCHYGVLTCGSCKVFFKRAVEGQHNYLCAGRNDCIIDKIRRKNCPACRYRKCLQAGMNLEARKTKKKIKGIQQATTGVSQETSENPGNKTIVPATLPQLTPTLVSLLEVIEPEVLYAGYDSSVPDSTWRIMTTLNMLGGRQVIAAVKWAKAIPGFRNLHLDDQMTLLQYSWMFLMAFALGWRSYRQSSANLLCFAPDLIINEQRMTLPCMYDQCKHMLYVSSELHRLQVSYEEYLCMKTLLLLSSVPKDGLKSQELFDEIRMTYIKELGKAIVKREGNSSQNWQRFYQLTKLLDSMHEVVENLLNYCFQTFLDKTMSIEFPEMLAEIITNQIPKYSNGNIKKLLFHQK
The source made the active and inactive calls. Calls follow the shape of the full dose curve.
Listed here: items and their measured Potency.

O=C(O)CS(=O)(=O)C(c1ccccc1)c1ccccc1 = > 9.22 µM (inactive)
COc1ccc2c3c1O[C@@H]1C(=O)CC[C@@]4(O)[C@@H](C2)N(CC2CC2)CC[C@]314 = > 46 µM (inactive)
Oc1ccc([C@H](O)[C@@H]2CCCCN2)cc1O = > 9.22 µM (inactive)

Given the entry O=C(Nc1ccc([As](=O)(O)O)cc1)Nc1cccc(Cl)c1Cl , report its measured Potency.
> 9.22 µM (inactive)

Let us now turn to CCCN1CC[C@@H]2c3cc(O)ccc3CC[C@H]21
> 46 µM (inactive)

Let us now turn to Nc1c(C(=O)Nc2ccc([As](=O)(O)O)cc2)cnc2nnnn12
> 9.22 µM (inactive)

* * *

system: HIV-1 nucleocapsid protein NCp7 (binding to TG oligonucleotide); assay: HIV Nucleocapsid (AID 346); details: HIV-1 NC / fluorescein-TGTGTGTG probe, fluorescence polarization;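 also: potency is read from the fitted curve at half-maximal effect; potency is for inhibitors that block NC binding and lower polarization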
Active and inactive are the calls of the source. No rule for the calls is given here.
Give your call using only these classes: true (1) for active, false (0) for inactive

O=C(c1csnn1)N1CCC2(CCCN(Cc3cc(C(F)(F)F)cc(C(F)(F)F)c3)C2)CC1 = false (0)
Cn1c(=O)c(-c2cc(F)cc(F)c2)nc2cnc(Oc3cccc(Cl)c3)nc21 = false (0)
COCCNc1nc(-c2ccc(N(C)C)cc2)nc2ccccc12 = false (0)

Name the outcome recorded for COc1ccc(Oc2ncc3nc(CCc4ccccc4)c(=O)n(C4CC4)c3n2)cc1 in the assay.
false (0)

Let us now turn to CN(Cc1ccco1)c1ncncc1-c1ccc2c(c1)OCO2
false (0)

Let us now turn to Cc1noc(C)c1-c1nc(N2CCOCC2)c2ccccc2n1
false (0)

Let us now turn to COc1ccc(C(=O)N2CCC3(CCCN(c4ccccn4)C3)CC2)cc1
false (0)

Let us now turn to COc1cccc(Cn2c(=O)cnc3cnc(Nc4cccc(OC)c4)nc32)c1
false (0)

* * *

target: Cytochrome P450 2D6 (Homo sapiens); assay: qHTS Assay for Inhibitors and Substrates of Cytochrome P450 2D6 (AID 891); details: recombinant CYP2D6, luciferin-ME EGE luminescence; series mostly up to 11.4 µM; also: nearly all actives have a fitted effect of over 60% in size
Inconclusive results are not listed. Calls of active or inactive are those of the source. The call rests on the fitted dose curve; in most records, active means well fitted inhibition curve with a large enough effect; inconclusive means small, poorly fitted or top-dose-only effect; inactive means no such curve, though single readings can be large or run the other way.
Give your call using only these classes: active, inactive

Sample answers from the record:
CCN=C=NCCCN(C)C = inactive
NNc1c(C(N)=O)c2c(N)ncnc2n1[C@@H]1O[C@H](CO)[C@@H](O)[C@@H]1O = inactive
c1ccc2c(c1)Sc1ccccc1N2C[C@H]1CN2CCC1CC2 = active
C[C@H](c1ccccc1)N1CCN([C@@H](C)c2ccccc2)CC1 = active
CCNC(C)(C)[C@@H](SS)c1ccc(Br)cc1 = active

Name the outcome recorded for N[C@H](Cn1ccc(=O)[nH]c1=O)C(=O)O in the assay.
active

Let us now turn to Oc1ccc(CCNCc2cc3c(cc2Br)OCO3)cc1
active

Let us now turn to CO[C@@H]([CH2][Hg])CN1C(=O)c2ccccc2S1(=O)=O.Cn1c(=O)c2nc[nH]c2n(C)c1=O
inactive
